tested.target: WT EZH2 (Homo sapiens (Human), UniProt Q15910)
Sequence (Q15910 whole entry, looked up): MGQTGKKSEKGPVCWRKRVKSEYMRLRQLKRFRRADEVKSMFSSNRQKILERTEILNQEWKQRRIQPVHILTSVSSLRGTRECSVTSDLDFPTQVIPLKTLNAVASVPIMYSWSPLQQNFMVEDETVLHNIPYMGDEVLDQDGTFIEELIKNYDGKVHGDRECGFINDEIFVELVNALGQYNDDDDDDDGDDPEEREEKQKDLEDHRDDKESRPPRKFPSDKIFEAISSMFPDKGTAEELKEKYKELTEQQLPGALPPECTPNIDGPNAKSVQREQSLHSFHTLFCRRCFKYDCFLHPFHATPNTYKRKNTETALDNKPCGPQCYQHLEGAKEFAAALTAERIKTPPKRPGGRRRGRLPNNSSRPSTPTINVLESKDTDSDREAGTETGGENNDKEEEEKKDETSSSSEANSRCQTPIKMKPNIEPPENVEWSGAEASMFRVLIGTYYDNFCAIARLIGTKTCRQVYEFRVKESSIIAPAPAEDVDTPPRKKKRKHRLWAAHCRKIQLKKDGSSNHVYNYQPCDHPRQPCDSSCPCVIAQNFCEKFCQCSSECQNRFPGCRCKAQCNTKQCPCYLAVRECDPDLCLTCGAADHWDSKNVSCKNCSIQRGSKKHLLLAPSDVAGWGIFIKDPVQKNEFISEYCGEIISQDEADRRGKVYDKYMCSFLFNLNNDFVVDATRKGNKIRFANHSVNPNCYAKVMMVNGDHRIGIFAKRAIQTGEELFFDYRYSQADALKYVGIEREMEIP
Sequence (O75530 whole entry partner, looked up): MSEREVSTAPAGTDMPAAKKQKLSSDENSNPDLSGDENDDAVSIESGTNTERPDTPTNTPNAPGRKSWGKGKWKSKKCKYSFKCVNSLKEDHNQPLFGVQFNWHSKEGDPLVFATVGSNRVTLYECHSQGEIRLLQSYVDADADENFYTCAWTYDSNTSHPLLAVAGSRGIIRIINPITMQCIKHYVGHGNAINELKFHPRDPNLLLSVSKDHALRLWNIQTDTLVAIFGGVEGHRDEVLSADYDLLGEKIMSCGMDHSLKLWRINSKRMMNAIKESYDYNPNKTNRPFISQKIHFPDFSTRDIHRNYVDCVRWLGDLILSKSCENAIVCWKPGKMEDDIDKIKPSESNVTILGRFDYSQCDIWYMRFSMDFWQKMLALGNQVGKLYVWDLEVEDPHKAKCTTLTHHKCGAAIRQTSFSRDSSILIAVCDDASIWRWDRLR
Sequence (Q15022 whole entry partner, looked up): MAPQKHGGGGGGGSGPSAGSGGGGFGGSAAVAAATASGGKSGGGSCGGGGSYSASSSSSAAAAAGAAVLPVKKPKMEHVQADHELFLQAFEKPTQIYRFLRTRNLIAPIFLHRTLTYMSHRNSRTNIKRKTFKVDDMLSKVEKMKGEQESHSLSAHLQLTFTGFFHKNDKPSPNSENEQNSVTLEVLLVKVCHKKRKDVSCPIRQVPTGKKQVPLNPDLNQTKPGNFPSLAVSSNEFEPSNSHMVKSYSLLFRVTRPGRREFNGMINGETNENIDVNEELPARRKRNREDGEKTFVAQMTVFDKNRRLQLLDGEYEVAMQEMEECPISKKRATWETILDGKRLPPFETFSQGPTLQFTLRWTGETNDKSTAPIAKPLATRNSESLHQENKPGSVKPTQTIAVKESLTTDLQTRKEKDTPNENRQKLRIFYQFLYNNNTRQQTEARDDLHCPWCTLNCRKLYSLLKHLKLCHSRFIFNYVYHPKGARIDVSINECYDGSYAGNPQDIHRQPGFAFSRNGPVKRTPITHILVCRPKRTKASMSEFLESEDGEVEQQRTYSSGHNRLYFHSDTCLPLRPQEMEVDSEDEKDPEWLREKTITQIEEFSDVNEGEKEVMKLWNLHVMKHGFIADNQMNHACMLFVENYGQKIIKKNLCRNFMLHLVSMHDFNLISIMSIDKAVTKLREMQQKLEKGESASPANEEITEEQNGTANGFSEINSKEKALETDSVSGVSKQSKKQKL
Sequence (Q09028 whole entry partner, looked up): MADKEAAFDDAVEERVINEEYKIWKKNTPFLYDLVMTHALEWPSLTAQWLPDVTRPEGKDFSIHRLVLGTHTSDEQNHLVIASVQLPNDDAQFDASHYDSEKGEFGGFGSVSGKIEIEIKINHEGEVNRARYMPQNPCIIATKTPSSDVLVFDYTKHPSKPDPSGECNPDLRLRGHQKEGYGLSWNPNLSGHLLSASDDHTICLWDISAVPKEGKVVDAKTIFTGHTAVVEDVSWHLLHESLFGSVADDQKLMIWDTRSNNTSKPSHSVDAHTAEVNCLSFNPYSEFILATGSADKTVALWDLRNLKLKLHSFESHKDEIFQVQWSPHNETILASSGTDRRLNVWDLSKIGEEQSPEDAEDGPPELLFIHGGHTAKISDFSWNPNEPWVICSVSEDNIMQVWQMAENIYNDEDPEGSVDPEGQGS
assay.procedure: WT EZH2 nucleosome assay (10X SAM, high SAM conditions)
Type: biochemical
recorded.conditions: 15 uM SAM, Ki app from competitive inhibition fit, read-out: WT EZH2 Nucleosome assay (10X SAM) Ki
reported.property: Ki (nM)

1) Cc1cc(C)c(CN2CCc3c(C)cc(C(C)C4COC4)c(Cl)c3C2=O)c(=O)[nH]1 (single isomer, unassigned) [Example 196]
0.2
2) COC(c1cc(C)c2c(c1Cl)C(=O)N(Cc1c(C)cc(C)[nH]c1=O)CC2)C1CN(C2COC2)C1 (single isomer, unassigned) [Example 181]
1
3) COc1cc(C)[nH]c(=O)c1CN1CCc2c(C)cc([C@@H](OC)[C@H]3CCOC3)c(Cl)c2C1=O [Example 86]
61
